target entity: HLA-C*06:02
assay text: IEDB peptide-MHC binding, purified MHC/direct/fluorescence; filed as Kd, often an IC50 or EC50 that approximates it; bounds were set here for any values at or beyond the usual limits of such assays
condition summary: source organism: Bacillus anthracis str. A2012
parameter measured: pKd
# pKd is unitless: minus log10 of the molar concentration; print number only

Using the record for YMKERFTVL , state its measured pKd.
6.83

###

target entity: HLA-A*03:01
assay text: IEDB peptide-MHC binding, purified MHC/direct/fluorescence; filed as Kd, often an IC50 or EC50 that approximates it; bounds were set here for any values at or beyond the usual limits of such assays
condition summary: source organism: Bacillus anthracis
parameter measured: Kd

Specify Kd for TVIRFWHAM , system HLA-A*03:01.
≥ 20 µM

###

In this section we review reported Kd values for a set of sequences.
target entity: HLA-A*31:01
assay text: IEDB peptide-MHC binding, purified MHC/competitive/radioactivity; filed as Kd, often an IC50 or EC50 that approximates it; bounds were set here for any values at or beyond the usual limits of such assays
condition summary: source organism: SARS coronavirus Tor2
Output should be the measured figure followed by the unit it is expressed in.

Consider the worked cases shown below.
>>> measurement("VQIDRLITGR")
"43.6 nM"
>>> measurement("HLYLQYIRK")
"516 nM"
>>> measurement("ALGGSIAVK")
"12500 nM"
>>> measurement("IVQMLSDTLK")
"3820 nM"
>>> measurement("KSAQCFKMFY")
"629 nM"

Now look at this one.
Enter recorded Kd with HLA-A*31:01 for SAGFSLWIY here.
393 nM

###

target entity: HLA-B*18:01
assay text: IEDB peptide-MHC binding, purified MHC/competitive/fluorescence; filed as Kd, often an IC50 or EC50 that approximates it; bounds were set here for any values at or beyond the usual limits of such assays
condition summary: source organism: Vibrio antiquarius
parameter measured: Kd

Give the value of Kd reported for the following: SLTIPSFYT
≥ 20 µM

###

target entity: HLA-B*40:13
assay text: IEDB peptide-MHC binding, purified MHC/competitive/fluorescence; filed as Kd, often an IC50 or EC50 that approximates it; bounds were set here for any values at or beyond the usual limits of such assays
condition summary: source organism: Burkholderia mallei SAVP1
parameter measured: Kd (nM)
# unit: nM | format: bare number

Give recorded Kd. RQYERYTAL
37.7

###

target entity: HLA-A*68:01
assay text: IEDB peptide-MHC binding, purified MHC/competitive/radioactivity; filed as Kd, often an IC50 or EC50 that approximates it; bounds were set here for any values at or beyond the usual limits of such assays
condition summary: source organism: Mammarenavirus machupoense
pKd: −log10 of the molar value.
parameter measured: pKd

Send back HLA-A*68:01 pKd of LMAFANQIHH only.
≤ 4.33

###

target entity: HLA-A*02:06
assay text: IEDB peptide-MHC binding, purified MHC/competitive/radioactivity; filed as Kd, often an IC50 or EC50 that approximates it; bounds were set here for any values at or beyond the usual limits of such assays
condition summary: source organism: Dengue virus 3 Martinique/1243/1999
Measured Kd accompanies every entry in the list below.
Response body: numeric value in nM, unit text excluded.

Worked cases, Kd given:
>>> measurement("LLLLGLMILL")
21.5
>>> measurement("WVMKIGIGV")
1.38
>>> measurement("QVMLLVLCAV")
11.8

Switching to the query record.
Give the reported value of Kd for this record: MIAGVFFTFV
1.02

###

target entity: HLA-B*48:01
assay text: IEDB peptide-MHC binding, purified MHC/direct/fluorescence; filed as Kd, often an IC50 or EC50 that approximates it; bounds were set here for any values at or beyond the usual limits of such assays
condition summary: source organism: Orthohantavirus andesense
parameter measured: Kd

Specify reported Kd for the sequence shown: YRRKLTNPA
≥ 20 µM

###

target entity: HLA-B*08:01
assay text: IEDB peptide-MHC binding, purified MHC/direct/fluorescence; filed as Kd, often an IC50 or EC50 that approximates it; bounds were set here for any values at or beyond the usual limits of such assays
condition summary: source organism: Orthohantavirus andesense
parameter measured: Kd (µM)
Your answer should be a plain number; it is taken to be in µM.

Please report Kd for the following sequence: YRRKLTNPA
1.12

###

target entity: HLA-A*02:12
assay text: IEDB peptide-MHC binding, purified MHC/direct/fluorescence; filed as Kd, often an IC50 or EC50 that approximates it; bounds were set here for any values at or beyond the usual limits of such assays
condition summary: source organism: Zaire ebolavirus
parameter measured: Kd

Examples with answers:
>>> measurement("KRLQILGYL")
"≥ 20 µM"
>>> measurement("KTNDFAPAW")
"≥ 20 µM"

// next item, Kd requested
Determine its reported Kd: KCNPNLHYW
≥ 20 µM

###

target entity: HLA-B*35:01
assay text: IEDB peptide-MHC binding, purified MHC/direct/fluorescence; filed as Kd, often an IC50 or EC50 that approximates it; bounds were set here for any values at or beyond the usual limits of such assays
condition summary: source organism: Vibrio cholerae
parameter measured: pKd
Interpret pKd as the negative base-10 log of the concentration measured in mol/L.

Give a short answer stating reported pKd for EIFPNIKIY .
6.79

Supply recorded pKd for FPRSAERAG here.
7.36

###

target entity: HLA-C*15:02
assay text: IEDB peptide-MHC binding, purified MHC/direct/fluorescence; filed as Kd, often an IC50 or EC50 that approximates it; bounds were set here for any values at or beyond the usual limits of such assays
condition summary: source organism: Histophilus somni 129PT
parameter measured: Kd (nM)
Give the value, in units of nM, as a plain number.

Input KSLQTTRRF , output reported Kd.
266

###

target entity: HLA-B*39:01
assay text: IEDB peptide-MHC binding, purified MHC/direct/fluorescence; filed as Kd, often an IC50 or EC50 that approximates it; bounds were set here for any values at or beyond the usual limits of such assays
condition summary: source organism: Variola virus
parameter measured: Kd

Annotate the sequence KELENEYYF with its measured Kd.
≥ 20 µM

###

target entity: HLA-B*58:01
assay text: IEDB peptide-MHC binding, purified MHC/direct/fluorescence; filed as Kd, often an IC50 or EC50 that approximates it; bounds were set here for any values at or beyond the usual limits of such assays
condition summary: source organism: Yersinia pestis
pKd: −log10 of the molar value.
parameter measured: pKd

For HLA-B*58:01, give pKd of the listed sequence: VPRVHNQPQ
≤ 4.70

###

target entity: HLA-B*27:05
assay text: IEDB peptide-MHC binding, purified MHC/direct/fluorescence; filed as Kd, often an IC50 or EC50 that approximates it; bounds were set here for any values at or beyond the usual limits of such assays
condition summary: source organism: Camelpox virus M-96
parameter measured: Kd

>>> measurement("KELENEYYF")
"≥ 20 µM"

Provide HLA-B*27:05 Kd reading for NSNINVINY .
≥ 20 µM

###

target entity: HLA-A*31:01
assay text: IEDB peptide-MHC binding, purified MHC/competitive/radioactivity; filed as Kd, often an IC50 or EC50 that approximates it; bounds were set here for any values at or beyond the usual limits of such assays
condition summary: source organism: Dengue virus 3 Martinique/1243/1999
parameter measured: Kd (nM)
Your answer is read as nM, so omit the unit and give the number.

Entry QMWSLMYFHR needs its Kd filled in; supply it.
1.41

###

target entity: HLA-B*40:01
assay text: IEDB peptide-MHC binding, purified MHC/direct/fluorescence; filed as Kd, often an IC50 or EC50 that approximates it; bounds were set here for any values at or beyond the usual limits of such assays
condition summary: source organism: Escherichia coli O157:H7
Let's look at some sequences and their measured Kd.

Answered cases to consult:
>>> measurement("RFDEAIINY")
"≥ 10 µM"
>>> measurement("SMYQLMITI")
"≥ 10 µM"

Supply Kd value. Item: AQRPAKYSY
≥ 20 µM

###

target entity: HLA-B*15:01
assay text: IEDB peptide-MHC binding, purified MHC/competitive/radioactivity; filed as Kd, often an IC50 or EC50 that approximates it; bounds were set here for any values at or beyond the usual limits of such assays
condition summary: source organism: Dengue virus 4 Dominica/814669/1981
parameter measured: pKd
pKd here: minus log base 10 of the concentration, concentration in moles per litre.

Query pKd for IVIGVGNSAL
7.28

###

target entity: HLA-B*07:02
assay text: IEDB peptide-MHC binding, purified MHC/competitive/radioactivity; filed as Kd, often an IC50 or EC50 that approximates it; bounds were set here for any values at or beyond the usual limits of such assays
condition summary: source organism: Dengue virus 4 Philippines/H241/1956
parameter measured: pKd
The meaning of pKd here: minus log10 of the concentration in molar units.

>>> measurement("SPARLASAI")
8.57

Give the value of pKd reported for the following: TPQDNQLIYV
5.11

Reference source: the Immune Epitope Database (IEDB)
